Source of measurements: patent US20170342144A1

- SYSTEM_UNDER_TEST: T1, human TGFβ2 (human, UniProt P61812 303-414)
- T1 construct: also called TGFβ2 homodimer
- T1 sequence: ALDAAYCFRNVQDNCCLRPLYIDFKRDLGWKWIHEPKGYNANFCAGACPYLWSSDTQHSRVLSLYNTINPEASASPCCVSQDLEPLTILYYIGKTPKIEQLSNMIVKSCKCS
- PROTOCOL_DETAILS: Biacore off-rate vs wt GC1008, 50 nM
Here, each record is paired with measured kd var/kd wt data.
The response must contain the number and no unit.

S31H (antibody, V domains shown, GC1008 IgG4 variant) VH: QVQLVQSGAEVKKPGSSVKVSCKASGYTFSHNVISWVRQAPGQGLEWMGGVIPIVDIANYAQRFKGRVTITADESTSTTYMELSSLRSEDTAVYYCASTLGLVLDAMDYWGQGTLVTVSS VL: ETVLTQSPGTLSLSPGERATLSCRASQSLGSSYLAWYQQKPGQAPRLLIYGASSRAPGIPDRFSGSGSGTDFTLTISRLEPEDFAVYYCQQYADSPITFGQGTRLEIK | 1.3
N32Q (antibody, V domains shown, GC1008 IgG4 variant) VH: QVQLVQSGAEVKKPGSSVKVSCKASGYTFSSQVISWVRQAPGQGLEWMGGVIPIVDIANYAQRFKGRVTITADESTSTTYMELSSLRSEDTAVYYCASTLGLVLDAMDYWGQGTLVTVSS VL: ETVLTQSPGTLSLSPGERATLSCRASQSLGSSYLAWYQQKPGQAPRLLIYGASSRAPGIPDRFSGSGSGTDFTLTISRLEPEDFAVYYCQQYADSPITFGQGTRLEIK | 0.8
N32M (antibody, V domains shown, GC1008 IgG4 variant) VH: QVQLVQSGAEVKKPGSSVKVSCKASGYTFSSMVISWVRQAPGQGLEWMGGVIPIVDIANYAQRFKGRVTITADESTSTTYMELSSLRSEDTAVYYCASTLGLVLDAMDYWGQGTLVTVSS VL: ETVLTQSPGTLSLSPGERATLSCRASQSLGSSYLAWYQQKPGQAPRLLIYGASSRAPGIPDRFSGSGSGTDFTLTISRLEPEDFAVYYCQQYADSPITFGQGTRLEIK | 1.3
S30V (antibody, V domains shown, GC1008 IgG4 variant) VH: QVQLVQSGAEVKKPGSSVKVSCKASGYTFVSNVISWVRQAPGQGLEWMGGVIPIVDIANYAQRFKGRVTITADESTSTTYMELSSLRSEDTAVYYCASTLGLVLDAMDYWGQGTLVTVSS VL: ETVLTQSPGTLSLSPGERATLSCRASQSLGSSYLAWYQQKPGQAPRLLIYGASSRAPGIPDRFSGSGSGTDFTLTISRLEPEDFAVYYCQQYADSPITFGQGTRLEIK | 1.2

Continue with the next binder.
Could you share which kd var/kd wt value was measured for I52V (antibody, V domains shown, GC1008 IgG4 variant) VH: QVQLVQSGAEVKKPGSSVKVSCKASGYTFSSNVISWVRQAPGQGLEWMGGVVPIVDIANYAQRFKGRVTITADESTSTTYMELSSLRSEDTAVYYCASTLGLVLDAMDYWGQGTLVTVSS VL: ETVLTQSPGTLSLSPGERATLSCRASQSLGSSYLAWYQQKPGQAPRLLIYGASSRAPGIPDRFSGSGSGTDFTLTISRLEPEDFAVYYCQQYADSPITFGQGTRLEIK ? 1.1
